Test system: HeLa
Procedure summary: SRB colorimetric assay of cell growth and viability, HeLa
Assay type: cell-based, human
Assay conditions: HELA; 48 hours exposure
Where a SMILES comes first, the peptide text is derived from it. Bridges are numbered along the chain shown (N, C = ends). [ ]: non-standard residue; d: D form. The star is where a group is joined. Bip = N[C@@H](Cc1ccc(-c2ccccc2)cc1)C(=O)O; d(aIle) = CC[C@H](C)[C@@H](N)C(=O)O; d(aThr) = C[C@@H](O)[C@@H](N)C(=O)O; Hexanoyl(5-Me) = CC(C)CCCC(=O)*; Orn = NCCC[C@H](N)C(=O)O; Dhb = C/C=C(\N)C(=O)O
Readout: TGI HELA

# Molecule, Value reported
data = [
    ("C/C=C1\\NC(=O)[C@H](Cc2ccccc2)NC(=O)[C@@H](C(C)C)NC(=O)[C@@H]([C@@H](C)CC)NC(=O)[C@H](NC(=O)[C@H](NC(=O)[C@H](CCCN)NC(=O)[C@H]2CCCCN2C(=O)[C@H](NC(=O)[C@@H](NC(=O)[C@@H](NC(=O)[C@H](NC(=O)CC[C@@H](C)CC)C(C)C)[C@@H](C)O)C(C)C)C(C)C)[C@@H](C)CC)[C@@H](C)OC(=O)[C@H](C(C)C)NC1=O [Compound 60, [D-Pip^9, (4S)-MeHex^14]-KF]", "6.70E−06 Molar"),
    ("C/C=C1\\NC(=O)[C@H](Cc2ccccc2)NC(=O)[C@@H](C(C)C)NC(=O)[C@@H]([C@@H](C)CC)NC(=O)[C@H](NC(=O)[C@H](NC(=O)[C@H](CCCN)NC(=O)[C@H]2CCCN2C(=O)[C@H](NC(=O)[C@@H](NC(=O)[C@H](Cc2ccccc2)NC(=O)[C@H](NC(=O)CCCC(C)C)C(C)C)C(C)C)C(C)C)[C@@H](C)CC)[C@@H](C)OC(=O)[C@H](C(C)C)NC1=O [Compound 114, [Phe^12]-KF] ({Hexanoyl(5-Me)}-[dV]FV[dV][dP][Orn][d(aIle)][d(aThr)][d(aIle)][dV]F[Dhb]V; ester 8-C)", "9.25E−07 Molar"),
    ("C/C=C1\\NC(=O)[C@H](Cc2ccc(-c3ccccc3)cc2)NC(=O)[C@@H](C(C)C)NC(=O)[C@@H]([C@@H](C)CC)NC(=O)[C@H](NC(=O)[C@H](NC(=O)[C@H](CCCN)NC(=O)[C@H]2CCCN2C(=O)[C@H](NC(=O)[C@@H](NC(=O)[C@@H](NC(=O)[C@H](NC(=O)CCCC(C)C)C(C)C)[C@@H](C)O)C(C)C)C(C)C)[C@@H](C)CC)[C@@H](C)OC(=O)[C@H](C(C)C)NC1=O [Compound 86, [Bip^3]-KF] ({Hexanoyl(5-Me)}-[dV]TV[dV][dP][Orn][d(aIle)][d(aThr)][d(aIle)][dV][Bip][Dhb]V; ester 8-C)", "8.17E−07 Molar"),
    ("C/C=C1\\NC(=O)[C@H](Cc2ccccc2)NC(=O)[C@@H](C(C)C)NC(=O)[C@@H]([C@@H](C)CC)NC(=O)[C@H](NC(=O)[C@H](NC(=O)[C@H](CCCN)NC(=O)[C@H]2CCCN2C(=O)[C@H](NC(=O)[C@@H](NC(=O)[C@H](CC(C)C)NC(=O)[C@H](NC(=O)CCCC(C)C)C(C)C)C(C)C)C(C)C)[C@@H](C)CC)[C@@H](C)OC(=O)[C@H](C(C)C)NC1=O [Compound 113, [Leu^12]-KF] ({Hexanoyl(5-Me)}-[dV]LV[dV][dP][Orn][d(aIle)][d(aThr)][d(aIle)][dV]F[Dhb]V; ester 8-C)", "4.95E−07 Molar"),
]

###

Tested on: A-549
Procedure summary: SRB colorimetric assay of cell growth and viability, A-549
Type: cell-based, human
Assay conditions: A-549; 48 hours exposure; read-out: LC50 A-549
Where a SMILES comes first, the peptide text is derived from it. Bridges are numbered along the chain shown (N, C = ends). [ ]: non-standard residue; d: D form. The star is where a group is joined. 2Nal = N[C@@H](Cc1ccc2ccccc2c1)C(=O)O; d(aIle) = CC[C@H](C)[C@@H](N)C(=O)O; d(aThr) = C[C@@H](O)[C@@H](N)C(=O)O; Hexanoyl(5-Me) = CC(C)CCCC(=O)*; Orn = NCCC[C@H](N)C(=O)O; Dhb = C/C=C(\N)C(=O)O
Below, each entry is listed with its recorded CC50.

# Compound, CC50
records = [
    ("C/C=C1\\NC(=O)[C@H](Cc2ccccc2)NC(=O)[C@@H](C(C)C)NC(=O)[C@@H]([C@@H](C)CC)NC(=O)[C@H](NC(=O)[C@H](NC(=O)[C@H](CCCN)NC(=O)[C@H]2CCCN2C(=O)[C@H](NC(=O)[C@@H](NC(=O)[C@H](CCC(N)=O)NC(=O)[C@H](NC(=O)CCCC(C)C)C(C)C)C(C)C)C(C)C)[C@@H](C)CC)[C@@H](C)OC(=O)[C@H](C(C)C)NC1=O [Compound 119, [Gln^12]-KF] ({Hexanoyl(5-Me)}-[dV]QV[dV][dP][Orn][d(aIle)][d(aThr)][d(aIle)][dV]F[Dhb]V; ester 8-C)", "1990 nM"),
    ("C/C=C1\\NC(=O)[C@H](Cc2ccc3ccccc3c2)NC(=O)[C@@H](C(C)C)NC(=O)[C@@H]([C@@H](C)CC)NC(=O)[C@H](NC(=O)[C@H](NC(=O)[C@H](CCCN)NC(=O)[C@H]2CCCN2C(=O)[C@H](NC(=O)[C@@H](NC(=O)[C@@H](NC(=O)[C@H](NC(=O)CCCC(C)C)C(C)C)[C@@H](C)O)C(C)C)C(C)C)[C@@H](C)CC)[C@@H](C)OC(=O)[C@H](C(C)C)NC1=O [Compound 85, [Nal^3]-KF] ({Hexanoyl(5-Me)}-[dV]TV[dV][dP][Orn][d(aIle)][d(aThr)][d(aIle)][dV][2Nal][Dhb]V; ester 8-C)", "599 nM"),
    ("C/C=C1\\NC(=O)[C@H](Cc2cccc(Cl)c2)NC(=O)[C@@H](C(C)C)NC(=O)[C@@H]([C@@H](C)CC)NC(=O)[C@H](NC(=O)[C@H](NC(=O)[C@H](CCCN)NC(=O)[C@H]2CCCN2C(=O)[C@H](NC(=O)[C@@H](NC(=O)[C@@H](NC(=O)[C@H](NC(=O)CCCC(C)C)C(C)C)[C@@H](C)O)C(C)C)C(C)C)[C@@H](C)CC)[C@@H](C)OC(=O)[C@H](C(C)C)NC1=O [Compound 82, [Phe(3-Cl)^3]-KF]", "1490 nM"),
]

###

System: SK-MEL-28
Procedure summary: SRB colorimetric assay of cell growth and viability, SK-MEL-28
Format: cell-based, human
Assay conditions: 48 hours exposure; read-out: LC50 MEL-28
Where a SMILES comes first, the peptide text is derived from it. Bridges are numbered along the chain shown (N, C = ends). [ ]: non-standard residue; d: D form. The star is where a group is joined. d(aIle) = CC[C@H](C)[C@@H](N)C(=O)O; d(aThr) = C[C@@H](O)[C@@H](N)C(=O)O; Hexanoyl(5-Me) = CC(C)CCCC(=O)*; Orn = NCCC[C@H](N)C(=O)O; Dhb = C/C=C(\N)C(=O)O
Listing of recorded CC50 by entry.

# Compound, CC50
data = [
    ("C/C=C1\\NC(=O)[C@H](Cc2ccccc2)NC(=O)[C@@H](C(C)C)NC(=O)[C@@H]([C@@H](C)CC)NC(=O)[C@H](NC(=O)[C@H](NC(=O)[C@H](CCCN)NC(=O)[C@H]2CCCN2C(=O)[C@H](NC(=O)[C@@H](NC(=O)[C@H](CCC(=O)O)NC(=O)CCCC(C)C)C(C)C)C(C)C)[C@@H](C)CC)[C@@H](C)OC(=O)[C@H](C(C)C)NC1=O [Compound 56, [Glu^12, noD-Val^13]-KF] ({Hexanoyl(5-Me)}-EV[dV][dP][Orn][d(aIle)][d(aThr)][d(aIle)][dV]F[Dhb]V; ester 7-C)", "≥ 7.11 µM"),
    ("CC[C@H](C)[C@@H](NC(=O)[C@H](CCCN)NC(=O)[C@H]1CCCN1C(=O)[C@H](NC(=O)[C@@H](NC(=O)[C@@H](NC(=O)[C@H](NC(=O)CCCC(C)C)C(C)C)[C@@H](C)O)C(C)C)C(C)C)C(=O)N[C@H]1C(=O)N[C@H]([C@@H](C)CC)C(=O)N[C@H](C(C)C)C(=O)N[C@@H](Cc2ccccc2)C(=O)NCC(=O)N[C@@H](C(C)C)C(=O)O[C@@H]1C [Compound 65, [Gly^2]-KF] ({Hexanoyl(5-Me)}-[dV]TV[dV][dP][Orn][d(aIle)][d(aThr)][d(aIle)][dV]FGV; ester 8-C)", "≥ 6.89 µM"),
    ("C/C=C1\\NC(=O)[C@H](Cc2ccccc2)NC(=O)[C@@H](C(C)C)NC(=O)[C@@H]([C@@H](C)CC)NC(=O)[C@H](NC(=O)[C@H](NC(=O)[C@H](CCCN)NC(=O)[C@H]2CCCN2C(=O)[C@H](NC(=O)[C@@H](NC(=O)[C@@H](NC(=O)[C@H](NC(=O)CCCC(C)C)C(C)C)[C@@H](C)O)C(C)C)C(C)C)[C@@H](C)CC)[C@H](C)OC(=O)[C@H](C(C)C)NC1=O [Compound 2, [D-Thr^6]-KF]", "≥ 6.77 µM"),
]
